Median:FITC-A reference
target: T1, Foxp3-7 peptide/HLA-A*02:01 complex on the cell surface (human); assay: flow cytometry, phage on T2 + Foxp3-7 peptide; secondary only 104, unstained 81.7
T1 construct: also called Foxp3-7/HLA-A2 complex
metricName: Median:FITC-A

EXT017-53 scFv phage clone (scFv, full-length scFv with His+HA tags; also called EXT017-53 phage) scFv: NFMLTQPHSVSESPGKTVTISCTRSSGSIASHYVQWYQQRPGSSPTTVIYENNQRPSGVPDRFSGSIDSSSNSASLTISGLKTEDEADYYCQSYDRSNHVVFGGGTKLTVLGSRGGGGSGGGGSGGGGSLEMAQVQLVQSGAEVKKPGASVKVSCKASGYTFTNYYIHWVRQAPGEGLEWMGIIRPSGGNTNYAQKFQGRVTMTRDTSTRTVYMELSSLRSEDTAVYYCARSWNSRDVDSWGQGTLVTVSSTSGQAGQHHHHHHGAYPYDVPDYAS :: 2700
EXT017-54 scFv phage clone (scFv, full-length scFv with His+HA tags; also called EXT017-54 phage) scFv: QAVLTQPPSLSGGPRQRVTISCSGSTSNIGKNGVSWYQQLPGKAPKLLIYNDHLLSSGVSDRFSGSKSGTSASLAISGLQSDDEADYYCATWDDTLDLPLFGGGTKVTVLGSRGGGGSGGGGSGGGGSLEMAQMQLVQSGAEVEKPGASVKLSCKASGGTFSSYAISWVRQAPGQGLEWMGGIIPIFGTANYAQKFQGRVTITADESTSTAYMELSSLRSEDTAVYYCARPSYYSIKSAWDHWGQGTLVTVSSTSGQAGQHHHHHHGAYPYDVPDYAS :: 4370
EXT017-27 scFv phage clone (scFv, full-length scFv with His+HA tags; also called EXT017-27 phage; phage clone #27) scFv: QAVLTQPPSVSVAPGKTARLTCGGNNIGSESVHWYQQKPGQAPLLVVYDDDDRPSGIPERFSGSNSGNTATLTISRVEAGDEADYYCQVWDRSSDHWFFGGGTKLTVLGSRGGGGSGGGGSGGGGSLEMAQVQLVQSGAEVKKPGASVKVSCKASGYTFTNYYIHWVRQAPGQGLEWMGIIRPSGGITNYAQKFQGRVSMTRDTSTSTVYMELSSLRSEDTAVYYCARSWDYFASNDFWGQGTLVTVSSTSGQAGQHHHHHHGAYPYDVPDYAS :: 2820
EXT017-11 scFv phage clone (scFv, also called phage clone #11) scFv: NFMLTQPHSVSESPGKTVTISCTRSSGSIASNYVQWYQQRPGSAPTTVIYEDNQRPSGVPDRFSGSIDSSSNSASLTISGLKTEDEADYYCQSYDTNNYGVIFGGGTKLTVLGSRGGGGSGGGGSGGGGSLEMAQMQLVQSGAEVKKPGASVKVSCKTSGYTFNNYYMHWVRQAPGQGLEWMGIINPSGGSTNYAQKFQGRVTMTRDTSTSTVYMELSSLRSEDTAVYYCARSFDKQDIDYWGQGTLVTVSSTSGQAGQHHHHHHGAYPYDVPDYAS :: 2620
EXT017-28 scFv phage clone (scFv, full-length scFv with His+HA tags; also called EXT017-28 phage; phage clone #28) scFv: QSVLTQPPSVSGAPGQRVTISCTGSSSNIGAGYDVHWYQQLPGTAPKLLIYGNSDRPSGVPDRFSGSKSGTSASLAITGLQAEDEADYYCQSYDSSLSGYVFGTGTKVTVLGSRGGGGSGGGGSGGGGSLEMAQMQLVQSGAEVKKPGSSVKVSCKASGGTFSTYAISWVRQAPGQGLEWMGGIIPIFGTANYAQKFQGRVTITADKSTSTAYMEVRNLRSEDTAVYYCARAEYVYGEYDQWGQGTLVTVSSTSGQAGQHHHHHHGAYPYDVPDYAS :: 2790
Clone #5 (scFv, also called EXT017-5; EXT017-5 scFv phage clone) scFv (VL-linker-VH-His/HA tag): QSALTQPPSASGSPGQSVTISCTGTSSDVGGYNYVSWYQQHPGKAPKLMIYEVSKRPSGVPDRFSGSKSGNTASLTVSGLQAEDEADYYCSSYAGSNTHVVFGGGTKLTVLGSRGGGGSGGGGSGGGGSLEMAEVQLVQSGAEVKKPGASVKISCKASRYTFTNYYIHWVRQAPGQGLEWMGIINPSGGSTTYPQNFQGRLTMTRDTSTSTVYMELSSLRSEDTAMYYCARGWSGYDPGDFWGQGTLVTVSSTSGQAGQHHHHHHGAYPYDVPDYAS :: 2460
EXT017-20 scFv phage clone (scFv, full-length scFv with His+HA tags; also called EXT017-20 phage) scFv: QSVVTQPPSVSAAPGQKVTISCSGSSSNIGAGYDVHWYQQLPGTAPKLLIYGNSNRPSGVPDRFSGSKSGTSASLAITGLQAEDEADYYCQSYDSSLSGSVFGGGTKLTVLGSRGGGGSGGGGSGGGGSLEMAEVQLVQSGAEVKKPGSSVKVSCKASGGTFSSYAISWVRQAPGQGLEWMGGIIPIFGTANYAQKFQGRVTITADESTSTAYMELSSLRSEDTAVYYCARYSYKYGELDTWGQGTLVTVSSTSGQAGQHHHHHHGAYPYDVPDYAS :: 2300
EXT017-17 scFv phage clone (scFv, fusion to the phage coat protein not described; also called EXT017-17 phage; phage clone #17) scFv: QSVLTQPPSVSGAPGQRVTISCTGSSSNIGAGYDVHWYQQLPGTAPKLLIYGNSNRPSGVPDRFSGSKSGTSASLAITGLQAEDEADYYCQSYDSSLSGYVFGTGTKVTVLGSRGGGGSGGGGSGGGGSLEMAEVQLVQSGAEVKKPGSSVKVSCKASGDTFSRYAISWVRQAPGQGLEWMGRIIPIFGTPNYAQKFQGRVTITADEFTSTAYMELSSLRSEDTAMYYCARSIYRYSEYDHWGQGTLVTVSSTSGQAGQHHHHHHGAYPYDVPDYAS :: 2590

The values you see were collected from patent US20190284262A1.
